- subject of test: Human adrenergic α1B receptor (Homo sapiens, UniProt P35368)
- Sequence (P35368 whole entry): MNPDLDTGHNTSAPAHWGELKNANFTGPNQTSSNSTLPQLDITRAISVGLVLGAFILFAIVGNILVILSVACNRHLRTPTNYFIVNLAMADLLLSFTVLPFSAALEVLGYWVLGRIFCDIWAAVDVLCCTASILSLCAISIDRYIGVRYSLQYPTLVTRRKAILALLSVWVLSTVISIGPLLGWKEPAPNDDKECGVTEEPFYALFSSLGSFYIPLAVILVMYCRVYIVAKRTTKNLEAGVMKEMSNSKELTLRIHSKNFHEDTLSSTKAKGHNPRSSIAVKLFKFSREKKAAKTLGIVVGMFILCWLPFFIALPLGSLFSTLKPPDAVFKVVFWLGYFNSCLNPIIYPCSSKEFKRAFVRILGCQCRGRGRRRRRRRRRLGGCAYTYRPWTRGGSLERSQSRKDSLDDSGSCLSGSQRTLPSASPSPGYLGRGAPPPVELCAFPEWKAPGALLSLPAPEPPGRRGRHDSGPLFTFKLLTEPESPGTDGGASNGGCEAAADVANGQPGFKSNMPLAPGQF
- test details: Radioligand binding, adrenergic α1B (Protocol Group B)
- Set-up: purchased Milipore (Millipore)
- cond: 0.1 μM compound; Protocol Group B; 0.1 µM
quantity: Percentage inhibition of ligand binding, Adrenergic α1B (0.1 μM) (%)

{"compound": "CN1CCc2c(c3cc(CCO)ccc3n2CC(C)(O)c2cccnc2)C1 (single isomer, unassigned) [139a]", "recorded value": 9}
{"compound": "CN1CCc2c(c3cc(C(F)(F)F)ccc3n2CC(OC2CCCC2)c2ccncc2)C1 (single isomer, unassigned) [60b]", "recorded value": "−9"}
{"compound": "Cc1ccc2c(c1)c1c(n2CC(O)c2ccncc2)CN(C)C2CCCC12 (single isomer, unassigned) [36a]", "recorded value": "−2"}

a. Cc1ccc2c(c1)c1c(n2CC(O)c2ccncc2)CCN2CCCC12 (single isomer, unassigned) [Compound No. 178d]
b. Cc1ccc2c(c1)c1c(n2CC(O)c2ccncc2)CN(C)C2CCCC12 (single isomer, unassigned) [36b]
c. OC(Cn1c2c(c3cc(F)cc(F)c31)C1CCCN1CC2)c1ccncc1 (single isomer, unassigned) [144b]
d. Cc1ccc2c(c1)c1c(n2CC(O)c2ccncc2)CNC2CCCC12 (single isomer, unassigned) [34a]
e. CC(O)(Cn1c2c(c3cc(F)cc(Cl)c31)C1CCCN1CC2)c1ccncc1 (single isomer, unassigned) [88b]
Hello, I need these entries ordered by Percentage inhibition of ligand binding, Adrenergic α1B (0.1 μM), highest reading first. Thanks! // respond by listing labels in the order requested a, c, b, e, d

====

- subject of test: Human adrenergic α2B receptor (Homo sapiens, UniProt P18089)
- Sequence (P18089 whole entry): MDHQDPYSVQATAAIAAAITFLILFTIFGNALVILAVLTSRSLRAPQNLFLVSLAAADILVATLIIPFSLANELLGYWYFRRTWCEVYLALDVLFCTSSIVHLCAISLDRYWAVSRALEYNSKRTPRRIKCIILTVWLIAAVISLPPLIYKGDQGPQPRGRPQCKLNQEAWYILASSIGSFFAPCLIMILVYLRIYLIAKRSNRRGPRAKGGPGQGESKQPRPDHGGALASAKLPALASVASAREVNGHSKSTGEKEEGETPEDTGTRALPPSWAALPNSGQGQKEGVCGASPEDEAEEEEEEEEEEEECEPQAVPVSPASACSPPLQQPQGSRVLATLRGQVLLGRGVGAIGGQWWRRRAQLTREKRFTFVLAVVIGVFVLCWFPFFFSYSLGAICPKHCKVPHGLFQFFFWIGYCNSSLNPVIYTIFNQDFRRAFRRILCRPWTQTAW
- test details: Radioligand binding, adrenergic α2B (Protocol Group B)
- Set-up: purchased Milipore (Millipore)
- cond: 30 nM compound; Protocol Group B; 0.03 µM
quantity: Percentage inhibition of ligand binding, Adrenergic α2B (30 nM) (%)

Solved entries:
{"molecule": "Cc1cc(F)c2c(c1)c1c(n2CC(C)(O)c2cccnc2)CC2CCCN2C1 (single isomer, unassigned) [61d]", "subject of test": "Human adrenergic α2B receptor (Homo sapiens, UniProt P18089)", "units": "%", "recorded value": 11}
{"molecule": "Cc1ccc2c(c1)c1c(n2CC(C)(O)c2ccncc2)CC2CCCN2C1 (single isomer, unassigned) [37d]", "subject of test": "Human adrenergic α2B receptor (Homo sapiens, UniProt P18089)", "units": "%", "recorded value": 36}
{"molecule": "CC(O)(Cn1c2c(c3cc(Cl)cc(F)c31)C1CCCN1CC2)c1cccnc1 (single isomer, unassigned) [53d]", "subject of test": "Human adrenergic α2B receptor (Homo sapiens, UniProt P18089)", "units": "%", "recorded value": "−4"}

A. Cc1cc(C)c2c(c1)c1c(n2CC(C)(O)c2cccnc2)CCN2CCCC12 (single isomer, unassigned) [44c]
B. Cc1ccc2c(c1)c1c(n2CC(C)(O)c2ccc(N(C)C)nc2)CCN(C)C1 (single isomer, unassigned) [39a]
C. Cc1cc(Cl)c2c(c1)c1c(n2CC(C)(O)c2ccncc2)CCN2CCCC12 (single isomer, unassigned) [91c]
Would you mind ranking these molecules by ascending Percentage inhibition of ligand binding, Adrenergic α2B (30 nM)? // respond by listing labels in the order requested C, A, B
(C: −4%, A: 0%, B: 38%)

P. Cc1cc(F)cc2c3c(n(CC(C)(O)c4ccncc4)c12)CC1CCCN1C3 (single isomer, unassigned) [78a]
Q. OC(Cn1c2c(c3cc(Cl)ccc31)C1CCCN1CC2)c1ccncc1 (single isomer, unassigned) [143a]
R. Cc1ccc2c(c1)c1c(n2CC(C)(O)c2ccc(F)cc2)CN2CCC1C2 (single isomer, unassigned) [134b]
S. Cc1ccc2c(c1)c1c(n2CC(C)(O)c2ccc(N(C)C)nc2)CCN(C)C1 (single isomer, unassigned) [39b]
Hello, I need these entries ordered by Percentage inhibition of ligand binding, Adrenergic α2B (30 nM), highest reading first. Thanks! // respond by listing labels in the order requested Q, R, S, P
(Q: 89%, R: 40%, S: 20%, P: −1%)

P. Cc1cc(F)c2c(c1)c1c(n2CC(C)(O)c2cccnc2)CC2CCCN2C1 (single isomer, unassigned) [61a]
Q. Cc1cc(F)c2c(c1)c1c(n2CC(C)(O)c2ccncc2)CCN2CCCC12 (single isomer, unassigned) [81b]
R. CC(O)(Cn1c2c(c3cc(C(F)(F)F)ccc31)C1CCCN1CC2)c1cccnc1 (single isomer, unassigned) [64b]
S. Cc1cc(F)cc2c3c(n(CC(C)(O)c4cccnc4)c12)CC1CCCN1C3 (single isomer, unassigned) [76a]
Would you mind ranking these molecules by ascending Percentage inhibition of ligand binding, Adrenergic α2B (30 nM)? // respond by listing labels in the order requested S, R, P, Q
